Readings of koff for the listed binders
Target: T1, soluble CD19-HSA fusion protein (CD19 extracellular domains fused to human serum albumin) (human, UniProt P15391 20-291)
T1 construct: extracellular domain; also called recombinant CD19 antigen; not shown: human serum albumin
T1 sequence (looked up): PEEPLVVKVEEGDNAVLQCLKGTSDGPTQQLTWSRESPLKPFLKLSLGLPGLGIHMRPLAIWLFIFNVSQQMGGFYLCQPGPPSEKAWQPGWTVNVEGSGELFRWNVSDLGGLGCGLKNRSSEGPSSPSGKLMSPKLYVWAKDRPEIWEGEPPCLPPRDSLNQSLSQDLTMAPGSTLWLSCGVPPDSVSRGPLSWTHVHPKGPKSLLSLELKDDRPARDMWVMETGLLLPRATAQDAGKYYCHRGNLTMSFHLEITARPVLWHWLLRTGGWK
Test: BLI (ForteBio Octet RED384), IgG on AHC sensors, 100 nM soluble CD19-HSA, 1:1 model
State just the number; it will be interpreted in s⁻¹.

binder="Antibody 4 (antibody, V domains shown, Human IgG produced in Adimab yeast, purified on Protein A; Has the VH and VL of #4 scFv; also called CD19 Antibody 4) VH: QVQLVESGGGVVQPGRSLRLSCAASGFTFSSYGMHWVRQAPGKGLEWVALIWYDGSNKYYADSVKGRFTISRDNSKNTLYLQMNSLRAEDTAVYYCAKPVEGLLRGFDYWGQGTLVTVSS VL: EIVLTQSPGTLSLSPGERATLSCRASQSVSSSYLAWYQQKPGQAPRLLIYGASSRATGIPDRFSGSGSGTDFTLTISRLEPEDFAVYYCQQVDSLHPFTFGGGTKVEIK" number=0.000218

Incoming: // lookup koff for Antibody 15 (antibody, V domains shown, Human IgG produced in Adimab yeast, purified on Protein A; Has the VH and VL of #15 scFv; also called CD19 Antibody 15) VH: QVQLVESGGGVVQPGRSLRLSCAASGFTFSSYGMHWVRQAPGKGLEWVALIWYDGSNKYYADSVKGRFTISRDNSKNTLYLQMNSLRAEDTAVYYCAKPVEGLLRGFDYWGQGTLVTVSS VL: EIVLTQSPGTLSLSPGERATLSCRASQSVSSSYLAWYQQKPGQAPRLLIYGASRRATGIPDRFSGSGSGTDFTLTISRLEPEDFAVYYCQQAGIPPYTFGGGTKVEIK
Outgoing: 0.00145

Incoming: // lookup koff for Antibody 6 (antibody, V domains shown, Human IgG produced in Adimab yeast, purified on Protein A; Has the VH and VL of #6 scFv; also called CD19 Antibody 6) VH: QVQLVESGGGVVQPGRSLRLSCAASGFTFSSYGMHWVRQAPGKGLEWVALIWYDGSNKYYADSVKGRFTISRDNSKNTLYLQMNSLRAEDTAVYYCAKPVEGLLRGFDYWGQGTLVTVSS VL: EIVLTQSPGTLSLSPGERATLSCRASQSVRSSYLAWYQQKPGQAPRLLIYGASSRATGIPDRFSGSGSGTDFTLTISRLEPEDFAVYYCQQAGVPPLTFGGGTKVEIK
Outgoing: 0.000484

Incoming: // lookup koff for Antibody 1 (antibody, V domains shown, Human IgG produced in Adimab yeast, purified on Protein A; Has the VH and VL of #1 scFv; also called CD19 Antibody 1) VH: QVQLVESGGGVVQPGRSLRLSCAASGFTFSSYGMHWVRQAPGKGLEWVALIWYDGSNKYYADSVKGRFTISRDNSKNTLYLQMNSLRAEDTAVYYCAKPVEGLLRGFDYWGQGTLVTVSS VL: EIVMTQSPGTLSLSPGERATLSCRASQSVSSSYLAWYQQKPGQAPRLLIYGASNRATGIPDRFSGSGSGTDFTLTISRLEPEDFAVYYCQQAGVFPFTFGGGTKVEIK
Outgoing: 0.00176
